Values from the supplement of paper PMC6555819

system: FXR:RXRa (NR concentration 270 nM, RXRa partner concentration 90 nM); assay: PBM binding z-score (relative to random genomic background probes); higher = stronger binding; sequences stand for … in GC…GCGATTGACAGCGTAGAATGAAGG
Recorded PBM binding z-score determines the group label, using label 0: < 1; label 1: ≥ 1 and < 4; label 2: ≥ 4

INSERT INTO assay_data (construct_sequence, category_label) VALUES
  ('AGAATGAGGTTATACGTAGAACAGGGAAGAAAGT', 'label 1'),
  ('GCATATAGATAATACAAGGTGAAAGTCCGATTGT', 'label 0'),
  ('CCTCGGAGTACAGAAGGTCAGAGCTGTCCGCTTT', 'label 1'),
  ('CATACAGGGTCAGCTAGGCCAGAGCAGGGACGGC', 'label 2'),
  ('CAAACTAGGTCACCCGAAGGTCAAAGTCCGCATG', 'label 2'),
  ('CCTACTGGGCCATTTAGAGGTCATTGATCATATG', 'label 1'),
  ('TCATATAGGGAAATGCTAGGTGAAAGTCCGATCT', 'label 1'),
  ('TCTTGTAAATCAACAGGAGGTTAAGAAAGATCGA', 'label 0'),
  ('ATCGAAAGGTGGTGAGGTGAGTATACAGAAAGGC', 'label 0'),
  ('CCTACTGGGCCATCAAGTCATTGATATCAACGTT', 'label 0'),
  ('ATACCAAGGTGATCCTGAGGTCGTTGATACTAAC', 'label 1'),
  ('AGGATGAGGTTATACGTAGATCAGGGAAGAAAGT', 'label 1'),
  ('CCTGCTAGGTCATTGTCAGCTAATCTACAGTATG', 'label 1'),
  ('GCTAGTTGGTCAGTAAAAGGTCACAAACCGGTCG', 'label 1'),
  ('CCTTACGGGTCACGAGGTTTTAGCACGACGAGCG', 'label 2'),
  ('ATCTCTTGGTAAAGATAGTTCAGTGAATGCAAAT', 'label 0'),
  ('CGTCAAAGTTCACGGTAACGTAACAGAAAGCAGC', 'label 2'),
  ('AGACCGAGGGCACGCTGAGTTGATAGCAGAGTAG', 'label 0'),
  ('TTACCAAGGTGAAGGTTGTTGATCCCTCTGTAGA', 'label 0'),
  ('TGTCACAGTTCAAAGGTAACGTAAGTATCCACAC', 'label 2'),
  ('ACTTGCAGGCCAAGTTTGGGTCACTCAAACAAAG', 'label 0'),
  ('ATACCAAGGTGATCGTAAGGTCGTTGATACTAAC', 'label 1'),
  ('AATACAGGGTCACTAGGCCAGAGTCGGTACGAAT', 'label 2'),
  ('AATACAGGGTCACTAGGCCAGTGTAGGTACGAAT', 'label 2'),
  ('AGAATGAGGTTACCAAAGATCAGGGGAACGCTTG', 'label 1'),
  ('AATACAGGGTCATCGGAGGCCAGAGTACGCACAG', 'label 2'),
  ('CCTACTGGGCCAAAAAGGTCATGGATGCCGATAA', 'label 1'),
  ('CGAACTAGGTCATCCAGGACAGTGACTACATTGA', 'label 2'),
  ('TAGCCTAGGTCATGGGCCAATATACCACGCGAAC', 'label 2'),
  ('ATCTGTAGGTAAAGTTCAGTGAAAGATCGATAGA', 'label 0'),
  ('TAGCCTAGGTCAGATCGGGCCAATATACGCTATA', 'label 1'),
  ('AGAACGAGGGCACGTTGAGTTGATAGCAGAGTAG', 'label 0'),
  ('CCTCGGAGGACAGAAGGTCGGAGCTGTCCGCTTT', 'label 0'),
  ('TAGCCTAGGTCAGGCGGGCCAGTATAGTGTCGGC', 'label 1'),
  ('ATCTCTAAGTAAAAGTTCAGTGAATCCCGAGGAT', 'label 0');

* * *

test system: LXRb:RXRa (NR concentration 270 nM, RXRa partner concentration 90 nM); experiment: PBM binding z-score (relative to random genomic background probes); higher = stronger binding; sequences stand for … in GC…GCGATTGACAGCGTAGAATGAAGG
measure name: PBM binding z-score

INSERT INTO results (construct_sequence, measure_name, result_number) VALUES
  ('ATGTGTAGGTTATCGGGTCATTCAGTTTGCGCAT', 'PBM binding z-score', 3.3),
  ('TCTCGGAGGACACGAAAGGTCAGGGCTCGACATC', 'PBM binding z-score', 3.5),
  ('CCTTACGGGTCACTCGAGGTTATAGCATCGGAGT', 'PBM binding z-score', 5.72),
  ('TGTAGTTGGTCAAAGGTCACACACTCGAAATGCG', 'PBM binding z-score', 5.42),
  ('ACTAGCAGGCCAAGTTTGGGTCACTCCAACAAAG', 'PBM binding z-score', 0.664),
  ('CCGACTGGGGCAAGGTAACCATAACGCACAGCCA', 'PBM binding z-score', -0.227),
  ('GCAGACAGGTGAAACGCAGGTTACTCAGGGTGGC', 'PBM binding z-score', 0.216),
  ('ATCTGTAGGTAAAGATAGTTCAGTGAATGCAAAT', 'PBM binding z-score', 0.986),
  ('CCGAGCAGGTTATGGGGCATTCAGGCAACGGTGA', 'PBM binding z-score', 0.325),
  ('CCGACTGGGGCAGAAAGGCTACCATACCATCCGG', 'PBM binding z-score', -0.869),
  ('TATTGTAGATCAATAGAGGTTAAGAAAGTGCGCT', 'PBM binding z-score', 1.79),
  ('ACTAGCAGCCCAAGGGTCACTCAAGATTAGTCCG', 'PBM binding z-score', 2.75),
  ('GCGACTGGGGCAAAGCAGCTTACCATAAGGTTGG', 'PBM binding z-score', -0.42),
  ('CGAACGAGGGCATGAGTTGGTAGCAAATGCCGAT', 'PBM binding z-score', -0.2),
  ('CAAACTAGGGCAAGAGGTCAAAGTCCGCTTCCCG', 'PBM binding z-score', 4.67),
  ('CGAACTAGGTCAAGGACAGTTAATCTCCGCACGC', 'PBM binding z-score', 1.58),
  ('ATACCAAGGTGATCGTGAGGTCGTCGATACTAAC', 'PBM binding z-score', 0.992),
  ('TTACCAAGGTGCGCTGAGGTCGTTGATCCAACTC', 'PBM binding z-score', 0.588),
  ('GCTCGGTGGACAAGGTCAGAGCTTTGTCCGTAGA', 'PBM binding z-score', 0.887),
  ('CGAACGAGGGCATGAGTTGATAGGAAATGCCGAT', 'PBM binding z-score', -0.00432),
  ('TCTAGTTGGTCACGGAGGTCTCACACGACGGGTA', 'PBM binding z-score', 0.437),
  ('ATATGTAGGTTACATCCGGGTCAATCAGGCTATG', 'PBM binding z-score', 2.91),
  ('TCTCGTAGATCAACAGGAGGTTAAGAAAGATCGA', 'PBM binding z-score', 1),
  ('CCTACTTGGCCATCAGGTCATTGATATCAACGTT', 'PBM binding z-score', 2.21),
  ('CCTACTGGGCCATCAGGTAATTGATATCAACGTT', 'PBM binding z-score', -0.089),
  ('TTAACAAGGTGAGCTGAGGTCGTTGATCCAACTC', 'PBM binding z-score', 0.45),
  ('CCTACTGGGCCCTCAGGTCATTGATATCAACGTT', 'PBM binding z-score', 1.2),
  ('CATACAGGGTCAGCTAGGCCAGAGTCGGGACGGC', 'PBM binding z-score', 1.97),
  ('ATCTCTAGGTAACCAAGTTAAGTGAATGCCGAAC', 'PBM binding z-score', 0.412),
  ('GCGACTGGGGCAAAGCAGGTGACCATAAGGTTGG', 'PBM binding z-score', -0.574),
  ('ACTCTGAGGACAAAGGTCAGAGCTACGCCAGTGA', 'PBM binding z-score', 3.34),
  ('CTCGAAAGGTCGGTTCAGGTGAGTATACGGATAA', 'PBM binding z-score', 1.74),
  ('CGTCCAAGGTCATAGGAGGTCAGTGAAGACAGAT', 'PBM binding z-score', 5.99),
  ('TCTTGTAGATCAAAGGTTAACAAAGCCGAAGCCT', 'PBM binding z-score', 2.16),
  ('CCTAGTTGGTCAGGAGGTCACTCACCGGATATGA', 'PBM binding z-score', 2.79),
  ('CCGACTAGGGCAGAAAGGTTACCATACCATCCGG', 'PBM binding z-score', 0.925),
  ('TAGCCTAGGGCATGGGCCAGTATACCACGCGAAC', 'PBM binding z-score', -0.666),
  ('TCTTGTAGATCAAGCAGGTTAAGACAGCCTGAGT', 'PBM binding z-score', 0.33),
  ('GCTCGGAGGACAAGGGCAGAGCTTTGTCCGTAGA', 'PBM binding z-score', -1.04),
  ('CGTACAGGGTCAGCTAGGCCAGAGTAGGGACGGC', 'PBM binding z-score', 1.94),
  ('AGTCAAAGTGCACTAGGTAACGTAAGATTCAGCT', 'PBM binding z-score', -0.0247),
  ('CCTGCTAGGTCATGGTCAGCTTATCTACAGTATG', 'PBM binding z-score', 1.71),
  ('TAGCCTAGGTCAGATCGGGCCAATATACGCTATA', 'PBM binding z-score', 1.22);
